MEASUREMENT NOTES: CCTE_Shafer_MEA_dev_active_electrodes_number: CCTE's Neural Network Formation Assay for Number of Active Electrodes, Shafer Lab (AID 2284040)
Results filed as inconclusive are left out. Calls of active or inactive are those of the source. The calls were made as follows: active = hit-call score of the fitted dose curve at least 0.9, where 1 is the maximum; inconclusive = response in the unintended direction; inactive = score below 0.9.
A correct response names exactly one class from Y (active), N (inactive)

Task item: Please share the test call associated with CP(=O)(O)CC[C@H](N)C(=O)O .
Reply: N

Task item: Status in this test for O=[As]O ?
Reply: Y

Task item: Outcome logged for [CH3][Sn]([CH3])[CH3] in this assay:
Reply: Y

Task item: For this compound, state the assay outcome: CN[C@]1(c2ccccc2Cl)CCCCC1=O
Reply: N

Task item: Hello, I am checking results. What call was entered for CCOP(=O)(OCC)SCSC(C)(C)C ?
Reply: Y

Task item: What did the test return for Cc1ccc(OP(=O)(Oc2ccc(C)cc2)Oc2ccc(C)cc2)cc1 (tested in a mixture with another compound) ?
Reply: N

Task item: For CCCCC(CC)COC(=O)c1cc(Br)c(Br)c(Br)c1Br (stereo not given) , which call appears in the assay record?
Reply: Y

Task item: I'd appreciate the recorded outcome for CN1C(=O)CN=C(c2ccccc2)c2cc(Cl)ccc21 from this test.
Reply: Y

Task item: Hi, do you know how c1ccc2c(c1)cc1ccc3cccc4ccc2c1c34 came out in this test?
Reply: N

Task item: Which outcome was entered for the compound CC1CCCC1.[C-]#[O+].[C-]#[O+].[C-]#[O+].[Mn] in this test?
Reply: N

Task item: Short answer needed: outcome of this test for NCCc1cc(O)c(O)cc1O ?
Reply: Y

Task item: GET /call?item= C#CCN(C)[C@H](C)Cc1ccccc1 returns the recorded outcome of this test.
Reply: N

Task item: Test call for this compound, please: [Cd+2].[Cl-].[Cl-]
Reply: Y

Task item: Which outcome did this test record for the compound O=C(O)CNCP(=O)(O)O ?
Reply: N

Task item: # lookup: test call for CC1(C)[C@H](C(=O)O[C@H](C#N)c2cccc(Oc3ccccc3)c2)[C@@H]1C=C(Br)Br
Reply: Y

Task item: Could you kindly confirm the outcome this assay logged for CC1(C)[C@H](C=C(Cl)Cl)[C@H]1C(=O)OCc1c(F)c(F)cc(F)c1F ?
Reply: Y

Task item: What call does the record list for [CH3][Hg][Cl] ?
Reply: Y

Task item: GET /call?item= CC1(C)C(C=C(Cl)c2ccc(Cl)cc2)C1C(=O)OC(C#N)c1ccc(F)c(Oc2ccccc2)c1 (stereo not given) returns the recorded outcome of this test.
Reply: Y

Task item: Query: recorded result category for CCOP(=S)(OCC)SCS(=O)C(C)(C)C (stereo not given) in this test
Reply: N

Task item: Could you please tell me the result logged for C[n+]1ccc(-c2cc[n+](C)cc2)cc1 in this assay?
Reply: Y

Task item: Assay outcome for Cn1nc(C(F)(F)F)c(CS(=O)(=O)C2=NOC(C)(C)C2)c1OC(F)F : what was it?
Reply: Y

Task item: Test call, this compound: CC(=O)[O-].[Tl+]
Reply: N

Task item: I'd appreciate the recorded outcome for CC1(C)C(C=C(Cl)Cl)C1C(=O)O[C@H](C#N)c1cccc(Oc2ccccc2)c1 (stereo not given in full) from this test.
Reply: Y

Task item: Each compound tested received a call. Report the one for COC(=O)[C@H]1[C@@H](OC(=O)c2ccccc2)C[C@@H]2CC[C@H]1N2C .
Reply: N

Task item: Call for entry CCC[CH2][Sn]([CH2]CCC)([CH2]CCC)[O][Sn]([CH2]CCC)([CH2]CCC)[CH2]CCC :
Reply: Y

The reported measurements were obtained from PubChem BioAssay (EPA / NIEHS).
